# System: P12-Ichikawa
# protocol.details: cell viability relative to DMSO control; higher = less cytotoxic
# setup.conditions: RPMI 5 mM glucose + 10% dialyzed FBS; 48 h; 0.0632 µM
Assignment: determine reported cell viability for the given compounds.
Please respond with the number in % and leave the unit unwritten.

Item under review: FC(F)c1nc2ccccc2n1-c1nc(N2CCOCC2)nc(N2CCOCC2)n1 . Reported cell viability?
95.3

# lookup: cell viability of O=c1[nH]c2ccccc2n1C1CCN(Cc2ccc(-c3nc4cc5nc[nH]c5cc4nc3-c3ccccc3)cc2)CC1
114

# query: cell viability of entry CN(C)[C@H]\1[C@@H]2C[C@H]3C(=C(O)\[C@]2(O)C(=O)\C(=C1O)C(N)=O)/C(=O)C4=C(O)C=CC=C4[C@@]3(C)O
116

I'd like to know its cell viability. The compound in question is OC1CCC(Nc2ncc3nc(Nc4c(F)cc(F)cc4F)n([C@@H]4CCOC4)c3n2)CC1 (some centres undefined)
117

Which measured cell viability value corresponds to O=C(Nc1cc2cc[nH]c2cn1)c1ccccc1 ?
99.7

State the recorded cell viability for this entry: CC/1=C(/N2[C@H](SC1)[C@H](NC(=O)[C@H](N)\C3=C\C\C=C/C3)C2=O)C(O)=O
118

// lookup cell viability for COc1cc(OC)c(/C=C/[S+](=O)([O-])Cc2ccc(OC)c(NCC(=O)[O][Na])c2)c(OC)c1
116

What value of cell viability has been reported for the following compound? O=C(c1ccc(Nc2nccc(-c3cc4ccccc4s3)n2)cc1)N1CCC(N2CCCC2)CC1
123

What cell viability value was documented for this compound, CC(C)CC(=O)N[C@H](C(=O)N[C@H](C(=O)N[C@@H](CC(C)C)[C@@H](O)CC(=O)N[C@@H](C)C(=O)N[C@@H](CC(C)C)[C@@H](O)CC(=O)O)C(C)C)C(C)C ?
96.6

Please give the measured cell viability for this compound: CC(C)C[C@H](NC(=O)[C@H](CCc1ccccc1)NC(=O)CN1CCOCC1)C(=O)N[C@@H](Cc1ccccc1)C(=O)N[C@@H](CC(C)C)C(=O)[C@@]1(C)CO1
5.27

Return reported cell viability; argument: CN1CCCN=C1/C=C/c1cccs1.O=C(O)c1cc2ccccc2c(Cc2c(O)c(C(=O)O)cc3ccccc23)c1O
120

Recorded cell viability of COc1ccc(-c2nc(N3CCOCC3)c3sc(CN(C)c4ncc(C(=O)NO)cn4)cc3n2)cn1 , please.
10.5

Endpoint output: cell viability of CCOC(=O)C/1=C(O)/C(=O)N(CC2=CC=CC=C2)C1 . Value?
113

Query (compound): C[S+](=O)([O-])N1CCc2c(-c3cnc(N)nc3)nc(N3CCOCC3)nc21 ; field requested: cell viability
112

Tell me the measured cell viability of C[C@@]12C[C@@]3(O)O[C@@H](O1)[C@]1(COC(=O)c4ccccc4)[C@H]3C[C@@]12O[C@@H]1O[C@H](CO)[C@@H](O)[C@H](O)[C@H]1O , please.
105

Please look up its cell viability: O=C(Nc1c(Cl)cncc1Cl)c1ccc(OC(F)F)c(OCC2CC2)c1
106

// lookup cell viability for Cc1cc2c(F)c(Oc3ncnn4cc(OC[C@@H](C)O)c(C)c34)ccc2[nH]1
104

Quick one: cell viability for Cc1cnc(NC(=O)Nc2cc(Br)c(C)cc2OC[C@@H]2CNCCO2)cn1 ?
121

What cell viability value was documented for this compound, CN1C[C@H]2c3ccccc3Oc3ccc(Cl)cc3[C@@H]2C1 ?
87.5

Please look up its cell viability: CCC(C)(C)c1ccc(CC(C)CN2C[C@@H](C)O[C@@H](C)C2)cc1 (some centres undefined)
81.8

For CC[C@H](C)[N]1C=C(C)C2=C1C=C(C=C2C(=O)NC\C3=C(C)\C=C(\C)NC3=O)C4=CC=C(N=C4)N5CCNCC5 , what is its reported cell viability?
115

What does the record list as cell viability for CSCC[C@@H](NC(=O)[C@@H](Cc1ccccc1)NC(=O)CNC(=O)CNC(=O)[C@@H](N)Cc1ccc(O)cc1)C(=O)O ?
101

Record request: cell viability value, item COc1cc2ncnc(Nc3ccc(F)c(Cl)c3)c2cc1NC(=O)/C=C/CN1CCCCC1
105

Could you share which cell viability value was measured for CN1CCN(c2ccc([N+](=O)[O-])c3no[n+]([O-])c23)CC1 ?
98.8

I am curious: what cell viability value has been reported for Cn1c(CNc2ccc(C(=N)N)cc2)nc2cc(C(=O)N(CCC(=O)O)c3ccccn3)ccc21 ?
115

Dear colleague, I am looking for the recorded cell viability of the following compound: CNC[C@H](O)c1ccc(O)c(O)c1
90.6

Name the recorded cell viability for C[C@@H]1[C@H](O)[C@@H](C)/C=C/C=C/C=C/C=C/C=C/C=C/C=C/[C@H](O[C@@H]2O[C@H](C)[C@@H](O)[C@H](N)[C@@H]2O)C[C@@H]2O[C@](O)(C[C@@H](O)C[C@@H](O)[C@H](O)CC[C@@H](O)C[C@@H](O)CC(=O)O[C@H]1C)C[C@H](O)[C@H]2C(=O)O .
130

# cell viability lookup, item O=C1c2c(O)ccc(O)c2C(=O)c2c(NCCNCCO)ccc(NCCNCCO)c21
106

Fill in the blank: the reported cell viability of C[S+]([O-])(=O)C1=CC=C(C=C1)C/2=C(/C(=O)OC2)C3=CC=CC=C3 is ____.
123
